Assay: Pharmacokinetic measurement in mouse, single sc dose 30 nmol/kg, plasma ELISA
Settings: single sc dose 30 nmol/kg
property_name: AUC0-24 h (µM·h)
Please give a number only; it is taken to be in µM·h.

Before answering, review these 3 worked examples.
>>> reported("MLC008: fusion polypeptide SEQ ID NO: 255 conjugated with Moiety A at 6K of Linker (conjugate, Moiety A conjugated at linker K6) HGEGTFTSDVSSYLEEQAAREFIAWLVRGGGGQEPGKEPGQEPGQEPGQEPGQEPGQEPGQEPGAQPGAQPARQGDHCPLGPGRCCRLHTVRASLEDLGWADWVLSPREVQVTMCIGACPSQFRAANLHAQIKTSLHRLRPDTVPAPCCVPASYNPMVLIQRTDTGVSLQTYDDLLARDCHCI")
0.0822
>>> reported("MLC093: fusion polypeptide SEQ ID NO: 381 conjugated with Moiety B at 33C of Linker (conjugate, Moiety B conjugated at linker Cys33) HGEGTFTSDVSSYLEEQAAKEFIAWLVRGGGGAQPGAQPGAQPGAQPGAQPGAQPGAQPGAQPCQEPGAQPGQEPGAQPGQEPGAQPGQEPGAQPGQEPGAQPGQEPGAQPARQGDHCPLGPGRCCRLHTVRASLEDLGWADWVLSPREVQVTMCIGACPSQFRAANLHAQIKTSLHRLKPDTVPAPCCVPASYNPMVLIQKTDTGVSLQTYDDLLAKDCHCI")
2.1637
>>> reported("MLC017: fusion polypeptide SEQ ID NO: 264 conjugated with Moiety A at 55K of Linker (conjugate, Moiety A conjugated at linker K55) HGEGTFTSDVSSYLEEQAAREFIAWLVRGGGGQEPGAQPGQEPGAQPGQEPGAQPGQEPGAQPGQEPGAQPGQEPGAQPGAQPGAKPGAQPGAQPGAQPGAQPGAQPGAQPARQGDHCPLGPGRCCRLHTVRASLEDLGWADWVLSPREVQVTMCIGACPSQFRAANLHAQIKTSLHRLRPDTVPAPCCVPASYNPMVLIQRTDTGVSLQTYDDLLARDCHCI")
0.4385

Can you share its AUC0-24 h? I mean this molecule: MLC075: fusion polypeptide SEQ ID NO: 369 conjugated with Moiety C at 41C of Linker (conjugate, Moiety C conjugated at linker C41) HGEGTFTSDVSSYLEEQAAKEFIAWLVRGGGGQEPGAQPGQEPGAQPGQEPGAQPGQEPGAQPGQEPGAQPCQEPGAQPGAQPGAQPGAQPGAQPGAQPGAQPGAQPGAQPARQGDHCPLGPGRCCRLHTVRASLEDLGWADWVLSPREVQVTMCIGACPSQFRAANLHAQIKTSLHRLKPDTVPAPCCVPASYNPMVLIQKTDTGVSLQTYDDLLAKDCHCI
1.2753

src = patent US11453711B2
